Below: a set of entries, each annotated with reported viability, T/C.
Tested on: 188146-221-R-J1-PDC complex spheroid viability
protocolNotes: Anticancer human tumor 188146-221-R-J1-PDC patient-derived colon adenocarcinoma cell line growth inhibition [POLQ]
experimentalSetup: second compound 0.1 µM; first compound 0.0316 µM; active compounds read low

Examples with their reported viability, T/C follow.
COc1cc(C2c3cc4c(cc3C(OC3OC5COC(C)OC5C(O)C3O)C3COC(=O)C23)OCO4)cc(OC)c1O (stereo not given) + Cc1cccc(N(C)C(=O)C2C(O)CCN2c2nc(C)cc(C(F)(F)F)c2C#N)c1 | 111%
CC[C@@]1(O)C(=O)OCc2c1cc1n(c2=O)Cc2cc3c(CN(C)C)c(O)ccc3nc2-1 + Cc1cccc(N(C)C(=O)C2C(O)CCN2c2nc(C)cc(C(F)(F)F)c2C#N)c1 | 99.1%
COc1ccc([C@@H](O)c2cc(-c3ncnc4cc(N5CCOCC5)ccc34)c(F)cc2Cl)nn1 + Nc1ccc(C#CCN(C(=O)Cc2ncc(C(F)(F)F)cc2C(F)(F)F)c2ccc(F)cc2)nn1 | 109%
COc1cc2cc(C(=O)CCC(=O)O)sc2cc1OC + COC1C(OC(N)=O)C(O)C(Oc2ccc3c(O)c(NC(=O)c4ccc(O)c(CC=C(C)C)c4)c(=O)oc3c2C)OC1(C)C | 105%

From here, focus on the item given below.
**Q:** Name the recorded viability, T/C of the item C=CCn1c(=O)c2cnc(Nc3ccc(N4CCN(C)CC4)cc3)nc2n1-c1cccc(C(C)(C)O)n1 + Nc1ccc(C#CCN(C(=O)Cc2ncc(C(F)(F)F)cc2C(F)(F)F)c2ccc(F)cc2)nn1 in your answer.
**A:** 119%

---

Test system: 188146-221-R-J1-PDC complex spheroid viability
protocolNotes: Anticancer human tumor 188146-221-R-J1-PDC cell line growth inhibition [POLQ];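 also: spheroids exposed to compounds for seven days; 100% = DMSO vehicle control viability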
experimentalSetup: second compound 10 µM; first compound 0.316 µM; active compounds read low
Below: a set of entries, each annotated with reported viability, T/C.
Express the result in % but write the number alone.

Examples with their reported viability, T/C follow.
Nc1ccn(C2OC(CO)C(O)C2(F)F)c(=O)n1 (stereo not given) + Nc1ccc(C#CCN(C(=O)Cc2ncc(C(F)(F)F)cc2C(F)(F)F)c2ccc(F)cc2)nn1 | 20.3
CC1COCCN1c1cc(-c2ccnn2C)c2ccnc(-c3ccn[nH]3)c2n1 (stereo not given) + COC1C(OC(N)=O)C(O)C(Oc2ccc3c(O)c(NC(=O)c4ccc(O)c(CC=C(C)C)c4)c(=O)oc3c2C)OC1(C)C | 44.6
CCCS(=O)(=O)Nc1ccc(F)c(C(=O)c2c[nH]c3ncc(-c4ccc(Cl)cc4)cc23)c1F + COC1C(OC(N)=O)C(O)C(Oc2ccc3c(O)c(NC(=O)c4ccc(O)c(CC=C(C)C)c4)c(=O)oc3c2C)OC1(C)C | 96.3
O=c1[nH]cc(F)c(=O)[nH]1 + Cc1cccc(N(C)C(=O)C2C(O)CCN2c2nc(C)cc(C(F)(F)F)c2C#N)c1 | 76.6

From here, focus on the item given below.
**Q:** Name the recorded viability, T/C of the item C#Cc1c(F)ccc2cc(O)cc(-c3ncc4c(N5CC6CCC(C5)N6)nc(OCC56CCCN5CC(F)C6)nc4c3F)c12 (stereo not given) + COC1C(OC(N)=O)C(O)C(Oc2ccc3c(O)c(NC(=O)c4ccc(O)c(CC=C(C)C)c4)c(=O)oc3c2C)OC1(C)C in your answer.
**A:** 108

---

System: 188146-221-R-J1-PDC complex spheroid viability
protocolNotes: Anticancer human tumor 188146-221-R-J1-PDC cell line growth inhibition [POLQ];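 also: spheroids exposed to compounds for seven days; 100% = DMSO vehicle control viability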
experimentalSetup: second compound 0.0316 µM; first compound 0.0316 µM; active compounds read low
Below: a set of entries, each annotated with reported viability, T/C.
Express the result in % but write the number alone.

Examples with their reported viability, T/C follow.
C=CC(=O)N1CCN(c2nc(=O)n(-c3c(C)ccnc3C(C)C)c3nc(-c4c(O)cccc4F)c(F)cc23)C(C)C1 (stereo not given) + Cc1cccc(N(C)C(=O)C2C(O)CCN2c2nc(C)cc(C(F)(F)F)c2C#N)c1 | 104
O=C(Nc1ccc(O)c(NS(=O)(=O)c2ccc(F)cc2)c1)c1ccc(-c2ccccc2)cc1 + Cc1cccc(N(C)C(=O)C2C(O)CCN2c2nc(C)cc(C(F)(F)F)c2C#N)c1 | 100
CC1COCCN1c1cc(C2(O)CC3CCC(C2)O3)c2cnn(-c3ccn[nH]3)c2n1 (stereo not given) + Nc1ccc(C#CCN(C(=O)Cc2ncc(C(F)(F)F)cc2C(F)(F)F)c2ccc(F)cc2)nn1 | 88.7

**Q:** Fill: viability, T/C (188146-221-R-J1-PDC complex spheroid viability) for this compound CCCS(=O)(=O)Nc1ccc(F)c(C(=O)c2c[nH]c3ncc(-c4ccc(Cl)cc4)cc23)c1F + COC1C(OC(N)=O)C(O)C(Oc2ccc3c(O)c(NC(=O)c4ccc(O)c(CC=C(C)C)c4)c(=O)oc3c2C)OC1(C)C
**A:** 106

**Q:** Fill: viability, T/C (188146-221-R-J1-PDC complex spheroid viability) for this compound O=C(Nc1ccc(O)c(NS(=O)(=O)c2ccc(F)cc2)c1)c1ccc(-c2ccccc2)cc1 + Nc1ccc(C#CCN(C(=O)Cc2ncc(C(F)(F)F)cc2C(F)(F)F)c2ccc(F)cc2)nn1
**A:** 104

**Q:** Fill: viability, T/C (188146-221-R-J1-PDC complex spheroid viability) for this compound CC[C@@]1(O)C(=O)OCc2c1cc1n(c2=O)Cc2cc3c(CN(C)C)c(O)ccc3nc2-1 + Nc1ccc(C#CCN(C(=O)Cc2ncc(C(F)(F)F)cc2C(F)(F)F)c2ccc(F)cc2)nn1
**A:** 96.4

---

Below: a set of entries, each annotated with reported viability, T/C.
Test system: 188146-221-R-J1-PDC complex spheroid viability
protocolNotes: Anticancer human tumor 188146-221-R-J1-PDC cell line growth inhibition [POLQ];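 also: spheroids exposed to compounds for seven days; 100% = DMSO vehicle control viability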
experimentalSetup: second compound 0.316 µM; first compound 3.16 µM; active compounds read low

Examples with their reported viability, T/C follow.
O=C(Nc1ccc(O)c(NS(=O)(=O)c2ccc(F)cc2)c1)c1ccc(-c2ccccc2)cc1 + Cc1cccc(N(C)C(=O)C2C(O)CCN2c2nc(C)cc(C(F)(F)F)c2C#N)c1 | 83.2%
O=C(c1cc(Cc2n[nH]c(=O)c3ccccc23)ccc1F)N1CCN(C(=O)C2CC2)CC1 + COC1C(OC(N)=O)C(O)C(Oc2ccc3c(O)c(NC(=O)c4ccc(O)c(CC=C(C)C)c4)c(=O)oc3c2C)OC1(C)C | 90.7%
C#Cc1c(F)ccc2cc(O)cc(-c3ncc4c(N5CC6CCC(C5)N6)nc(OCC56CCCN5CC(F)C6)nc4c3F)c12 (stereo not given) + COC1C(OC(N)=O)C(O)C(Oc2ccc3c(O)c(NC(=O)c4ccc(O)c(CC=C(C)C)c4)c(=O)oc3c2C)OC1(C)C | 92.5%

**Q:** Name the recorded viability, T/C of the item CC1COCCN1c1cc(-c2ccnn2C)c2ccnc(-c3ccn[nH]3)c2n1 (stereo not given) + COC1C(OC(N)=O)C(O)C(Oc2ccc3c(O)c(NC(=O)c4ccc(O)c(CC=C(C)C)c4)c(=O)oc3c2C)OC1(C)C in your answer.
**A:** 17.2%

**Q:** Name the recorded viability, T/C of the item CNCc1ccc(-c2[nH]c3cc(F)cc4c3c2CCNC4=O)cc1 + Nc1ccc(C#CCN(C(=O)Cc2ncc(C(F)(F)F)cc2C(F)(F)F)c2ccc(F)cc2)nn1 in your answer.
**A:** 123%

---

Below: a set of entries, each annotated with reported viability, T/C.
Tested on: 188146-221-R-J1-PDC complex spheroid viability
protocolNotes: Anticancer human tumor 188146-221-R-J1-PDC cell line growth inhibition [POLQ];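 also: spheroids exposed to compounds for seven days; 100% = DMSO vehicle control viability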
experimentalSetup: second compound 1 µM; first compound 0.01 µM; active compounds read low
Description: Multicellular complex tumor spheroid response to Polymerase (POL) inhibitors (novobiocin, ART-558, RP6685) in combination with a variety of drugs and investigational agents in selected tumor cell lines The POL inhibitors (novobiocin, ART-558, and RP6685) were evaluated both individually and in combination with standard of care and investigational anticancer small molecules within a complex spheroid model of solid tumors. . […]
Express the result in % but write the number alone.

Examples with their reported viability, T/C follow.
Cn1ncnc1[C@H]1c2n[nH]c(=O)c3cc(F)cc(c23)N[C@@H]1c1ccc(F)cc1 + Nc1ccc(C#CCN(C(=O)Cc2ncc(C(F)(F)F)cc2C(F)(F)F)c2ccc(F)cc2)nn1 | 94.5
CC[C@@]1(O)C(=O)OCc2c1cc1n(c2=O)Cc2cc3c(CN(C)C)c(O)ccc3nc2-1 + Cc1cccc(N(C)C(=O)C2C(O)CCN2c2nc(C)cc(C(F)(F)F)c2C#N)c1 | 104
CCc1c2c(nc3ccc(O)cc13)-c1cc3c(c(=O)n1C2)COC(=O)[C@]3(O)CC + Nc1ccc(C#CCN(C(=O)Cc2ncc(C(F)(F)F)cc2C(F)(F)F)c2ccc(F)cc2)nn1 | 77.8
Cn1ncnc1[C@H]1c2n[nH]c(=O)c3cc(F)cc(c23)N[C@@H]1c1ccc(F)cc1 + Cc1cccc(N(C)C(=O)C2C(O)CCN2c2nc(C)cc(C(F)(F)F)c2C#N)c1 | 102

From here, focus on the item given below.
**Q:** Name the recorded viability, T/C of the item Cn1ncnc1[C@H]1c2n[nH]c(=O)c3cc(F)cc(c23)N[C@@H]1c1ccc(F)cc1 + COC1C(OC(N)=O)C(O)C(Oc2ccc3c(O)c(NC(=O)c4ccc(O)c(CC=C(C)C)c4)c(=O)oc3c2C)OC1(C)C in your answer.
**A:** 107
